src = the nanobody polyreactivity screen of Harvey et al. (2022)

# assay: yeast display, Sf9 membrane polyspecificity reagent, FACS + sequencing; frameworks hold sequencing errors
measuredProperty: polyreactivity (PSR sort gate)

QVQLVESGGGLVQAGGSLRLSCDASGSIFQRYAMGWYRPAPGKERELVAGINWSGGRTYYADSVKGRFTISRDNAKNTVYLQMISLKPEDTAVYYCAAARYTRYDYWGQGTQVTVSS
high polyreactivity
QVQLVESGGGLVQAGGSLRLICAASGSTFLKYAMGWYRQAPGKERELVAAITYRGGTTYYADSVKGRFTISRDNAKNTVYLQMNSLKPEDTAVYYCAARGYKRMGYWGQGTQVTVSS
high polyreactivity
QVQLVESGGGLVQAGGSLRLSCAASGSTFTYNAMGWYRPAPGKERELVAAISYGGGRTYYADSVKGRFTISRDNAKNTVYLQMNSLKPEDTAVYYCAAGRSIGALYYGMDYWGQGTQVTVSS
high polyreactivity
QVQLVESGGGLVQAGGSLRLSCAASGYIFGNYAMGWYRQAPGKERELVADITWRGDSTYADSVKGRFTISRDNAKKTVYLQMNSLKPEDTAVYYCAADIATEYWYTGYDHWGQGTQVTVSS
low polyreactivity
QVQLVESGGGLVQAGGSLRLSCAASGSIFTPNAMGGYRQAPGKERELVAAISSSSDRTYYADSVKGRFTISRDNAKNTVYLQMNRLKPEDTAVYYCAAYAQKRYYWGQGTQVTVSS
high polyreactivity

Look up polyreactivity (PSR sort gate): QVQLVESGGGLVQAGGSLRLSCAASGAMGWYRQAPGKERELVAGITSGGSTNYADSVKGRFTISRDNAKNTVYLQMNSLKPEDTAVYDCNAVGGPRWLSVGWPYDYWGQGTQVTVSS
low polyreactivity

Also, QVQLVESGGGLVQAGGSLRLSCAASGSIFRYYAMGWYRQAPGKERELVAAISSSGDNTYYADSVKGRFTISRDNAKNTVYLQMNSLKPEDTAVYYCAVRGERRYIYDYWGQGTQVTVSS please.
high polyreactivity

Also, QVQLVESGGGLVQAGGSLRLSCAASGSTFISYAMGWYRQAPGKERELVAAIRYRDGRTYYADSVKGRFTNSRDNAKNTVYLQMISLKPEDTAVYYCAAKYRGLYSGMYYWGQGTQVTVSS please.
high polyreactivity

Also, QVQLVESGGGLVQAGGSLRISCAASGITFYANTMGWYRQAPGKEREFVAAISGIGGSTYYADSVKGRFAISRDNAKNTVYLQMNSLKPEDPAVYYCNADVYYFLFGTFDYWGQGTQVTVSS please.
low polyreactivity

Also, QVHLVESGGGLVQAGGSLRLICAASGYTFAFYAMGCYRQAPGKERELVAAISAGGGRTYYADSVKGRFTISRDNANNTVYLQMNSLKPEDTAVYYCATDLIQGAAPFRYDYWGQGTQVTVSS please.
low polyreactivity

Also, QVQLVESGGGLVQAGGSLRLSCAASGSIFAGYAMGWYRQAPGKERELVAAITSSGGSTYYADSVKGRFTISRDNAKNTVYLQMTSLKPEDTAVYYCAKDKLILYRVGSDYWGQGTQVTVSS please.
low polyreactivity

====

# assay: yeast display, Sf9 membrane polyspecificity reagent, FACS + sequencing; frameworks hold sequencing errors
measuredProperty: polyreactivity (PSR sort gate)

Sample answers from the record:
QVQLVESGGGLVQAGGSLRLSCAASGSIFVGYAMGWYRQAPGKERELVAAISVRGASTYYADSVKGRFTISRDNAKNTVYLQMNSLKPEDTAVYYCAARGNTPRTRRYGYWGQGTQVTVSS
high polyreactivity
QVQLVESGGGLVQAGGSLRLSCAASGSTFPVYAMGWYRQAPGKERELVAAISWRGDSTYYADSVKGRFTISRDNAKNTVYLQMNSLKPEDTAVYYCAASTGSVVRRYYYWGQGTQVTVSS
high polyreactivity
QVQLVESGGGLVQAGGSLRLSCAASGSTFAYYTMGWYRQAPGKERELVAAISKSGGSTTYADSVKGRFTISRDNAKNTVYLQMNSLKPEDTAVYYCAAYDRVENYNYWGQGTQVTVSS
high polyreactivity
QVQLVESGGGLVQAGGSLRLSCAASGNIFRGYTMGWSRQAPGKEREWVATISWNGVSTFYADSVKGRFTISRDNAKNTVYVQMNSLKPEDTAVYYCAAYYPSHDYSGFWSDTYEYWGQGTQVTVSS
low polyreactivity
QVQLVESGGGLVQAGGSLRLSCAASGSIFTWYAMGWYRQAPGKERELVAAISEDGGSTYYADSVKGRFTISRDNAKNTVYLQMNSLKPEDTAVYYCATPVASVTGYDYWGQGTQVTVSS
low polyreactivity

Look up polyreactivity (PSR sort gate): QVQLVESGGGLVQAGGSLRLSCAASGAILDEYSMVWYRPAPGKAREFVAGIRTIGGSTYYADSVKGRFTISRENAKNTVYLQLNSLIPEDTADNYCAADGRTHEPQGWLGGYDYCGQGTQVTVSS
low polyreactivity

====

# assay: yeast display, Sf9 membrane polyspecificity reagent, FACS + sequencing; frameworks hold sequencing errors
measuredProperty: polyreactivity (PSR sort gate)

Sample answers from the record:
QVQLVESGGGLVQAGGSLRLSCAASGRIFVAYAMGWYRQAPGKERELVAAITWSGTSTYADSVKGRFTISRDNAKNTVYLQMNSLKPEDTAVYYCAKKAIVSDQWDKYDYWGQGTQVTVSS
low polyreactivity
QVQLVESGGGLVQAGGSLRIICAASGRTFSYYAMGWYRQAPGKERELVAAITAGGNTYYADSVKGRFTISRDNAKNTVYLQMNSLKAEDTAVYYCAATYYWAWGGVYHSEFDYWGQGTQETVSS
low polyreactivity
QVQLVESGGGLVQAGGSLRLSCAASGRIFPYNAMGWYRQAPGKERELVASIRTGGGRTRYADSVKGRFTISRDNAKNTVYLQMNSLKPEDTAVYYCNADSSPRWYHYPTRYDYWGQGTQVTVSS
low polyreactivity
QVQLVESGGGLVQAGGSLRLSCAASGLNFYYYAMGWYRQAPGKERELVATISSRGGSTNYADSVKGRFTISRDNAKNTVYLQMNSLKPEDTAVYYCAADRRARVWTYRSYDYWGQGTQVTVSS
high polyreactivity
QVQLVESGGGLVQAGGSLRLSCAASGRTFVIYAMGWYRQAPGKERELVAAISKGGGSTYYADSVKGRFTISRDNAKNTVYLQMNSLKPEDTAVYYCAAGYGTYYQYSRFDYWGQGTQVTVSS
high polyreactivity

Look up polyreactivity (PSR sort gate): QVQLVESGGGLVQAGGSLRLSCAASGRIFVAYAMGWYRQAPGKQRELVADIDYIDGSTYYADSVKGRFTISRDNAKNTVYLQMNSLKPEDTAVYYCAVDSLYYAGYYDYWGQGTQVTVSS
high polyreactivity

Also, QFQLVEAGGGLVQAGGSLRLSCAASGRIFTYYAMGWYSQAPGKERELVAAITGSGGSTYYADSVKGRFTISRDNAKTTVYLQMISLKPEDTAVYYCARTDRRLGAHQGDYWGQGTQVTVSS please.
high polyreactivity

Also, QVQLVESGGGLVQAGGSLRLSCAASGFIFLVNAMGWYRHAPGKERELVAAITTSGASTYYADSVKGRFTISRDNAKNTVYLQMNSLKPEDTAVYYCAAGSYARPEYGYWGQGTQVTVSS please.
low polyreactivity

Also, QVQLVESGGGLVHAGGSLRLSCAASGITFEVYGMGWYRQSPGKERELVAAINSDGNTNYADSVKGRFTISRDNAKNTVYLEMNSVKPEDTAVYYCATVVNAQISRGESAVTGYYYWGQGTQVTVSS please.
high polyreactivity

Also, QVQLVESGGGLVQAGGSLRLSCAASGSTLGRYSMGWYRQAPGKERELVAAISWRGGSTYYADSVKGRFTISRDNAKNTVYLQMNSLKPEDTPVYYCAATYRFSEYYYWGQGTQVTVSS please.
high polyreactivity

Also, QVQHVESGGGLVQAGGSLRLSCAASGIIFYHNAMGWYRQAPVKERELVASITEIGGSTYYADSVKGLFTISRDNAKSTVYLQMNRLKPEDTAVYYCAAGTLTSFSRYDYWGQGTQVTVSS please.
low polyreactivity

====

# assay: yeast display, Sf9 membrane polyspecificity reagent, FACS + sequencing; frameworks hold sequencing errors
measuredProperty: polyreactivity (PSR sort gate)

QVQLVESGGGLVQAGGSLRLSCAASGSIFSHNAMGWYRQAPGKERELVAAISWSAASTYYADSVKGRFTISRDNAKNTVYLQMNSLKPEDTAVYYCAAVPYSSTYRYDYWGQGTQVTVSS
low polyreactivity
QVQLVESGGGLVQAGGSLRLSCAASGFTFVGNTMGWYRQAPGKERELVAAIRGRDGRTYYADSVKGRFTISRDNEKNTVYLQMNSLKPEDTAVYYCNVDVKYSVRSEFDYWGQGTQVTVSS
low polyreactivity

====

# assay: yeast display, Sf9 membrane polyspecificity reagent, FACS + sequencing; frameworks hold sequencing errors
measuredProperty: polyreactivity (PSR sort gate)

Sample answers from the record:
KVQLVESGGGLVQAGGSLRLSCAASGSTFSLYAMGWYRQAPGKERELVASIRWSGGRTYYADSVKGRFTISRDNAKNTVYLQMKSLKPEDTAVYYCAAAWRYGYGYWGQGTQVTVSS
high polyreactivity
QVQLVESGGGLVQAGVSLRLSCAASGRTFRGYAMGWYRQAPGKERELVAAISSGGSTYYADSVKWRFTISRDNSKNTVYLQMNSLKPEDTAVYYCARAVGNYRTLEFDYWGQGTHVTVSS
low polyreactivity
QVQLVKSGGGLVQAGGSLRLICAASGSIFGYNTMGWYRQAPGKERELVATITYRGGSTYYADSVKGRFTISRDNAKNTVYLQMNSLKPEDTAVYYCARRVTRYPYTTWVSAGDYWGQGTQVTVSS
high polyreactivity
QVQLVESGGGLVQAGGTLRLSCSASGSIFGIYAMGGYRHAPGKESELVAAITSGGSTYADSVKGRFTISRDNAKNTVYLQMNSLKPVDTAVYFCAAYGRDIGGYDYWGQGSQVTVSS
low polyreactivity

Attention now turns to another entry.
Look up polyreactivity (PSR sort gate): QVQLVESGGGLVQAGGSLRLSCAASGSTFKSNAMGWYRQAPGKERELVAAINRSGAGTYYADSVKGRFTISRDNAKHTVYLQLNSLKPEDTAVYYCAAQSYSRRYDYWGQGTQVTVSS
high polyreactivity
